The reported numbers originate from the supplement of paper PMC12667976.

Record form. Attribute: AIRE transcriptional activation functional score. Fill in for each entry.
B1: library; numbered along this chain (parent)
chain: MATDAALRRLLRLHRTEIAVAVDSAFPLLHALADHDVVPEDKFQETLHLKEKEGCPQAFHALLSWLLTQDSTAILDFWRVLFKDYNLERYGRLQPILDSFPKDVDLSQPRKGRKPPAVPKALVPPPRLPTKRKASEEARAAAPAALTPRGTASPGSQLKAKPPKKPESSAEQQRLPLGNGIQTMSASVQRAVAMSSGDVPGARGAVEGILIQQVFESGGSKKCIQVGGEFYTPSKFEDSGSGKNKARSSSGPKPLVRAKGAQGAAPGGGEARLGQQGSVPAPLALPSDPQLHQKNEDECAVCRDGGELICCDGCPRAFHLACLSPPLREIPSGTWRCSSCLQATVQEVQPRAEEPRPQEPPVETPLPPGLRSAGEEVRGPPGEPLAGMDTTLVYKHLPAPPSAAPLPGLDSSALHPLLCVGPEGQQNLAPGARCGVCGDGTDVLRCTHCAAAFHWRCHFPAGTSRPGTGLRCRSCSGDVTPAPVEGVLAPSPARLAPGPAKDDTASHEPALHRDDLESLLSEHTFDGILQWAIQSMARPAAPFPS

variants of: B1; test: AIRE transcriptional activation functional score (insulin promoter-GFP; nonsense median 0, synonymous median 1) (normalised score); higher = higher AIRE activity (more reporter activation); conditions: with insulin promoter-GFP reporter in HEK293
// no unit, no text: just the number

Input `A540I` . Output AIRE transcriptional activation functional score: 0.978

For record `T524F` the listed AIRE transcriptional activation functional score is 0.0783

For reference, reported AIRE transcriptional activation functional score for `V256G` stands at 1.05

AIRE transcriptional activation functional score reported for this variant `S339H` : 1.27

Per the records, this variant ( `R465P` ) has AIRE transcriptional activation functional score equal to 0.829

For `P384S` the variant record lists AIRE transcriptional activation functional score as 0.379

Recorded result, `A300R` , AIRE transcriptional activation functional score: 1.14

Noted for `I330S` : its AIRE transcriptional activation functional score reads 0.814

// field: AIRE transcriptional activation functional score; key: `P365C` ; value = 1.05

Reported AIRE transcriptional activation functional score for `L10E` was -0.413

`A19C` yielded AIRE transcriptional activation functional score of 0.605

Form field AIRE transcriptional activation functional score, entry `G269V` : 1.05

Lookup result for `S220I` ; measured AIRE transcriptional activation functional score: 0.449

The variant `Q157E` showed AIRE transcriptional activation functional score equal to 1.26

Per the records, this variant ( `T480G` ) has AIRE transcriptional activation functional score equal to 1.11

Per the record, `K52N` has AIRE transcriptional activation functional score of -0.178

Reported AIRE transcriptional activation functional score for `G218E` was -0.051

Entry under test: `A500P` . Its AIRE transcriptional activation functional score was 0.844

# AIRE transcriptional activation functional score (variant: `Q262I` ) is 1.04

The variant identified as `S518R` registered its AIRE transcriptional activation functional score at 0.342

# variant `L308G` ; its AIRE transcriptional activation functional score = 0.784

`A31Q` has a reported AIRE transcriptional activation functional score of 0.778

Lookup result for `T151Y` ; measured AIRE transcriptional activation functional score: 1.44

`A186H` yielded AIRE transcriptional activation functional score of 0.849

The recorded AIRE transcriptional activation functional score for `G197L` is 1.06

The variant listed as `V104D` shows AIRE transcriptional activation functional score equal to -0.387

Note to self: AIRE transcriptional activation functional score recorded for `L28R` was 0.297

The recorded AIRE transcriptional activation functional score for entry `F26V` equals -0.0518

// AIRE transcriptional activation functional score value for `S195I` : 0.0828

The recorded AIRE transcriptional activation functional score for `T46S` is 0.455

Recorded result, `A540G` , AIRE transcriptional activation functional score: 1

Measured AIRE transcriptional activation functional score, `L28Y` : -0.212

Just so you know, measured AIRE transcriptional activation functional score for `S220T` came out at 0.905

AIRE transcriptional activation functional score reading for `D36Q` : -0.178

Lab note: measured AIRE transcriptional activation functional score of `E88I` was 0.434

Recorded AIRE transcriptional activation functional score (variant `K221N` ): 0.995

Quick note, AIRE transcriptional activation functional score for `A6Q` landed at 1.03

So for `T72W` , the logged AIRE transcriptional activation functional score turned out to be 0.0941

Field AIRE transcriptional activation functional score (entry `D297Y` ) reads 0.771

So for `R471W` , the logged AIRE transcriptional activation functional score turned out to be 1.12

Per the records, this variant ( `G306E` ) has AIRE transcriptional activation functional score equal to 1.14

Reported AIRE transcriptional activation functional score for `D312M` was 0.226

Lab note: measured AIRE transcriptional activation functional score of `T463Y` was 0.384

Lab note: `A205F` gave AIRE transcriptional activation functional score of 0.213

The measured AIRE transcriptional activation functional score associated with `P416G` reads 0.937

# AIRE transcriptional activation functional score of `Q358P` = 1.05

For record `V279K` the listed AIRE transcriptional activation functional score is 0.637

In plain terms, `A19Y` has a documented AIRE transcriptional activation functional score of -2.2

The recorded AIRE transcriptional activation functional score for `F318Q` is 1.31

Please fill in: AIRE transcriptional activation functional score reported for `L66K` = -0.126

Value of AIRE transcriptional activation functional score reported for the variant `R272V` is 0.896

Note to self: AIRE transcriptional activation functional score recorded for `P483F` was 1.33

AIRE transcriptional activation functional score recorded for this variant, `V345H` , is 0.756

The reported value for `V393S` in terms of AIRE transcriptional activation functional score is 0.746

// `V479I` : AIRE transcriptional activation functional score value = 0.977

The variant listed as `P233L` shows AIRE transcriptional activation functional score equal to 0.385

The variant listed as `A58N` shows AIRE transcriptional activation functional score equal to -1.13

Looking up `S506A` , I see its AIRE transcriptional activation functional score listed as 1.36

Summary for this variant, `D41C` : AIRE transcriptional activation functional score is 1.39

Item: `T68Q` | AIRE transcriptional activation functional score: -1.24

Documented AIRE transcriptional activation functional score of `L516I` : 0.97

The reported value for `A261R` in terms of AIRE transcriptional activation functional score is 0.741

Looking up `D41K` , I found its AIRE transcriptional activation functional score recorded as -1.32

Record summary for `L516Q` : reported AIRE transcriptional activation functional score = 0.292

Entry `A432V` — recorded AIRE transcriptional activation functional score = 0.872

// recorded AIRE transcriptional activation functional score for `I18F` : 0.0176

// AIRE transcriptional activation functional score value for `W78M` : 0.308

Briefly, AIRE transcriptional activation functional score measured for `E508Q` : 1.03

The recorded AIRE transcriptional activation functional score for entry `E53Q` equals 0.948

AIRE transcriptional activation functional score reading for `P365A` : 1.05

Measured AIRE transcriptional activation functional score of `T480A` : 0.564

Memo: `L106V` , reported AIRE transcriptional activation functional score: 0.581

Entry `G180W` , AIRE transcriptional activation functional score reported as -0.0444

Please fill in: AIRE transcriptional activation functional score reported for `G424Q` = 1.49

In plain terms, `R378Y` has a documented AIRE transcriptional activation functional score of 0.657

Looking up `E298H` , I found its AIRE transcriptional activation functional score recorded as -2.02

# AIRE transcriptional activation functional score (variant: `S287H` ) is 0.964

Entry under test: `Q57K` . Its AIRE transcriptional activation functional score was 1.12

Looking up `P162L` , I found its AIRE transcriptional activation functional score recorded as 1.04

Value of AIRE transcriptional activation functional score reported for the variant `S71Q` is 2.02

// field: AIRE transcriptional activation functional score; key: `E296T` ; value = 0.948

Entry `E229W` ; AIRE transcriptional activation functional score = -0.162

# variant `G486S` ; its AIRE transcriptional activation functional score = 1.16

The variant `L285N` showed AIRE transcriptional activation functional score equal to 0.918

For `E307V` the variant record lists AIRE transcriptional activation functional score as 1.2

Sure, the documented AIRE transcriptional activation functional score for `R8C` is 0.131

Form field AIRE transcriptional activation functional score, entry `K120G` : 1.12

For reference, reported AIRE transcriptional activation functional score for `P119F` stands at 1.39

Sample `W78Q` ; AIRE transcriptional activation functional score observed: -2.24

Item: `V22K` | AIRE transcriptional activation functional score: -1.05

Quick note, AIRE transcriptional activation functional score for `G369L` landed at 1.46
